Test system: EKVX
assay remarks: NCI tumour cell line growth inhibition, 48 h
Activity calls are given as the source filed them. Rule as the data show it: active = GI50 up to about 1.1 µM and inactive = higher.
parameter: GI50

* COC1CC(OC(=O)c2ccccc2)C(OC(=O)c2ccccc2)C(C)O1 (configuration not stated) | > 100 µM (inactive)
* COCCOc1cc(C)cc(/C=C(C)/C=C/C2=C(C)CCCC2(C)C)n1 | 38.2 µM (inactive)
* CSc1nc(O)c(C#N)c(-c2ccc(Cl)cc2)n1 | > 100 µM (inactive)
* Cn1cnc([N+](=O)[O-])c1Sc1nc(N)nc2c1ncn2C1OC(CO)C(O)C1O (configuration not stated) | 8.39 µM (inactive)
* COc1ccc(-c2c(C#N)c(N)nc(Sc3ccccc3N)c2C#N)cc1 | 15.7 µM (inactive)
* NC(=O)COC(=O)c1c(Cl)nc2sccn12 | > 100 µM (inactive)
* Cc1cc(C)nc(/C(=N\NC(N)=O)C(=O)Nc2nc3ccc(C)cc3s2)c1 | > 100 µM (inactive)
* COc1cc(C2c3cc4c(cc3OC(NN)C2C)OCO4)cc(OC)c1OC (configuration not stated) | 10.2 µM (inactive)
* CC1=C[C@H]([C@H]2C=C(C)C(C(N)=O)=CN2Cc2c(Cl)cccc2Cl)N(Cc2c(Cl)cccc2Cl)C=C1C(N)=O | > 75 µM (inactive)
* CC(C)=NOC(=O)Nc1cccc2c1OCO2 | > 100 µM (inactive)
* CC12CCc3ccccc3C1=Nc1ccccc12 (configuration not stated) | 25.1 µM (inactive)
* O=C1C=CC2(O[C@H](C3CCCCC3)[C@@H](C3CCCCC3)O2)C(SC(=O)c2ccccc2)C1 (some centres not stated) | 6.1 µM (inactive)
* COc1cccc(OCC(=N/NC(=O)c2ccncc2)/N=C/c2ccncc2)c1 | > 100 µM (inactive)
* COC1=CC(=O)C2C(C1=O)[C@@H]1c3ccccc3C[C@H]21 (some centres not stated) | > 100 µM (inactive)
* c1ccc(C(CCN2CCCC2)c2ccccn2)cc1 (configuration not stated) | > 100 µM (inactive)
* C=CCn1c(=O)c2ccccc2[n+]2c(-c3cccc([N+](=O)[O-])c3)csc12 | 33.7 µM (inactive)
* [O-][S+]1SC(=S)C2C=CC=CC21 (configuration not stated) | 57.5 µM (inactive)
* O=C(CCN1CCCC1)Nc1ccc2sc3ccccc3c(=O)c2n1 | 12.4 µM (inactive)
* COC(=O)[C@@]1(NC(=O)C(CC(=O)OC(C)(C)C)NC(=O)OC(C)(C)C)C[C@H]1C (some centres not stated) | > 100 µM (inactive)
* C=C(C=O)c1c2c(nc3ccccc13)C(=O)c1ccccc1C2=O | 1.19 µM (inactive)
* CCCC(=O)NC(C(=O)OCC)(N1CCOCC1)C(F)(F)F (configuration not stated) | > 100 µM (inactive)
* Cc1cc(C(O)CNC(C)CCn2cnc3c2c(=O)n(C)c(=O)n3C)ccc1O (configuration not stated) | > 100 µM (inactive)

###

Tested on: M14
assay remarks: NCI tumour cell line growth inhibition, 48 h
The source made the active and inactive calls. Cut-off read from the data, not from the text of the source: active = GI50 up to about 1.1 µM and inactive = higher. Where a SMILES comes first, the peptide text is derived from it. [ ]: non-standard residue; d: D form. The star is where a group is joined. ξ: configuration not given here. ξNMe2Val = CC(C)C(C(=O)*)N(C)C; NMeV = CN[CH](C(=O)O)C(C)C; NHBn = c1ccc(CN*)cc1
parameter: GI50

• O=C(NNC(=O)c1ccccc1SSc1ccccc1C(=O)NNC(=O)c1ccccc1S)c1ccccc1S = 17.7 µM (inactive)
• CC(C)(Br)C(Br)CC/C(=C/CBr)CBr.CC(C)(Br)C(Br)CC/C(=C\CBr)CBr (configuration not stated) = 2.02 µM (inactive)
• O=C(c1c(F)c(F)c(F)c(F)c1F)c1c(F)c(F)c(F)c(F)c1F = 2.1 µM (inactive)
• CCOP(=O)(OCC)/C(C#N)=C/c1ncc[nH]1 = > 100 µM (inactive)
• CCc1nnc(S)n1/N=C/c1ccc(-c2ccc([N+](=O)[O-])cc2)o1 = > 100 µM (inactive)
• O=c1[nH]ccc(CNC23CC4CC(CC(C4)C2)C3)c1O = > 100 µM (inactive)
• C=CCN1C[C@@H](C)N([C@@H](c2ccc(C(=O)N(CC)CC)cc2)c2cccc(OC)c2)C[C@@H]1C = > 100 µM (inactive)
• O=C1c2ccccc2N(O)C1(c1ccccc1)C1CCCC=C1N1CCOCC1 (configuration not stated) = > 100 µM (inactive)
• C[C@]12CCC(=O)C=C1CC[C@@H]1C2CC[C@]2(C)Nc3c(cnn3-c3ccccc3)CC12 (some centres not stated) = > 100 µM (inactive)
• N#Cc1c(N)nc2[nH]nc(N)c2c1-c1ccc(Cl)cc1 = 3.33 µM (inactive)
• COc1cc(/C=C/c2ccc(Br)cc2)cc(OC)c1OC = 14.4 µM (inactive)
• Cc1n(Cc2ccccc2)c2c([n+]1C)C(=O)c1ccccc1C2=O = 0.0902 µM (active)
• CC(C)C(NC(=O)C(C(C)C)N(C)C)C(=O)N(C)C(C(=O)N1CCCC1C(=O)N1CCCC1C(=O)NCc1ccccc1)C(C)C (configuration not stated) (ξNMe2Val-V[NMeV]PP-NHBn; configuration not given here) = < 0.0001 µM (active)
• Clc1ncnc2c1nc(C#Cc1ccccc1)n2C1CCCCO1 (configuration not stated) = 2.14 µM (inactive)
• N#CCN(Cc1ccccc1)[C@H]1CCC[C@]1(O)/C=C/c1ccc2c(c1)OCO2 = 16.5 µM (inactive)
• c1ccc(C(CCN2CCCC2)c2ccccn2)cc1 (configuration not stated) = > 100 µM (inactive)
• CCC1CN2CCc3cc(OC)c(OC)cc3C2CC1CC1c2cc(OC)c(OC)cc2CCN1C(=O)C1CCCN1 (configuration not stated) = 14.5 µM (inactive)
• O=c1oc2ccccc2cc1/C=N/N1C(=S)N(c2ccccc2)C(=N\c2ccccc2)/C1=N/c1ccccc1 = > 100 µM (inactive)
• Clc1ccc(Nc2nc(Cl)c3nc[nH]c3n2)cc1Cl = 36.7 µM (inactive)
• CC(=O)NNc1nc(C)c(C(=O)NNC(=O)C(=O)Nc2ccc([N+](=O)[O-])cc2C#N)s1 = > 100 µM (inactive)
• CN1N=CSC12C(=O)N(c1ccccc1)C(=O)N2c1ccccc1 (configuration not stated) = > 100 µM (inactive)
• C=CCn1c(=O)c2ccccc2[n+]2c(-c3cccc([N+](=O)[O-])c3)csc12 = 62.7 µM (inactive)
• Clc1ccc(C2NN=C3c4ccccc4OCC32)cc1 (configuration not stated) = 2.84 µM (inactive)
• CC/C=C/C(=O)CC(O)(C(F)(F)F)C(F)(F)F = > 100 µM (inactive)
• COc1nc(C(=O)O)c(Cl)c(OC)c1Cl = > 100 µM (inactive)
• C=CCCCCn1c2ccccc2c2c(C)c3c[n+](C)ccc3c(C)c21 = 0.979 µM (active)
• O=C(O)C[C@@H]1[C@@H](O)[C@@H](O)CN2C(=O)c3ccccc3[C@H]12 = > 100 µM (inactive)
• CC1=C(C#N)C(=C(C#N)C#N)OC1(C)Cc1ccccc1 (configuration not stated) = 30.8 µM (inactive)
• C=CC[C@@H]1C=C[C@@H](C(=O)OC)n2c(=O)n(-c3ccccc3)c(=O)n21 = > 100 µM (inactive)
• Cc1ccc2c(c1)NC(=O)C(N=[N+]=[N-])(c1ccccc1)C2=O (configuration not stated) = 17 µM (inactive)
• CC(=O)Nc1ccc(N2C(=O)/C(=C\c3cccc(Oc4ccccc4)c3)SC2c2ccccc2)cc1 (configuration not stated) = 32.3 µM (inactive)
• Cn1c2ccc([N+](=O)[O-])cc2c(=O)n1Cc1ccccc1F = 25.4 µM (inactive)
• OCCCCCCOc1ccc(-c2cc(-c3ccccn3)nc(-c3ccccn3)c2)cc1 = 0.202 µM (active)
• COCCOc1cc(C)cc(/C=C(C)/C=C/C2=C(C)CCCC2(C)C)n1 = 94 µM (inactive)
• Cc1nsc2cc(Cl)n(C)c(=O)c12 = > 100 µM (inactive)
• CNC(=S)N1CCN(C(C)=O)C1=S = 42.4 µM (inactive)
• CN(C(=O)Nc1ccc(Cl)c(Cl)c1)C1CCCC[C@@H]1N1CCCC1 (some centres not stated) = 19.1 µM (inactive)
• COc1ccc(C2=NNC(=O)c3ccccc3N2c2nc(-c3cccs3)nc3ccc(Br)cc23)cc1 = 37.4 µM (inactive)
• O=C(CCN1CCOCC1)Nc1ccc(F)cc1F = > 100 µM (inactive)
• O=C(Nn1c(-c2ccccc2)nc2ccccc2c1=O)c1ccc(CS)cc1 = 47.6 µM (inactive)
• CCCCC1Cc2ccccc2-c2n1c1ccccc1[n+]2C (configuration not stated) = 23.3 µM (inactive)
• CCOc1cc(CCNC)c2c(ccc3ccc(OC)c(O)c32)c1OC = 13.9 µM (inactive)

// provenance: ChEMBL document CHEMBL1201862
